assayed-target: UniProt Q9UHD2
method-description: TBK1 low ATP kinase assay (in vitro assay 1)
Format: biochemical
details: in vitro assay 1, read-out: TBK1 low ATP kinase assay IC50
assay-readout: IC50 (nM)

Known results for compounds:
# compound, IC50, nM
measured = [
    ("CCC(=O)N1CCN(Cc2ccnc(Nc3nc4ccc(-c5nc(C)no5)cc4[nH]3)c2)CC1", 210),
    ("Cn1cc(-c2ccc3nc(Nc4cc(CN5CCN(C(=O)CC(F)(F)F)CC5)ccn4)[nH]c3c2)cn1", 55.3),
]

I = CC(c1ccnc(Nc2nc3ccc(-c4cc(N5CCC5)ncn4)cc3[nH]2)c1)N1CCN(C(=O)CC(F)(F)F)CC1 (single isomer, unassigned)
II = CCOc1cnc(C)cc1-c1ccc2nc(Nc3cc(CN4CCN(C(=O)C5CC5)CC4)ccn3)[nH]c2c1
q: For the pair I and II , which member has the lower IC50 number? Identify your pick by its label.
a: I

---

assayed-target: TBK1 (Homo sapiens (Human), UniProt Q9UHD2)
Sequence (Q9UHD2 whole entry): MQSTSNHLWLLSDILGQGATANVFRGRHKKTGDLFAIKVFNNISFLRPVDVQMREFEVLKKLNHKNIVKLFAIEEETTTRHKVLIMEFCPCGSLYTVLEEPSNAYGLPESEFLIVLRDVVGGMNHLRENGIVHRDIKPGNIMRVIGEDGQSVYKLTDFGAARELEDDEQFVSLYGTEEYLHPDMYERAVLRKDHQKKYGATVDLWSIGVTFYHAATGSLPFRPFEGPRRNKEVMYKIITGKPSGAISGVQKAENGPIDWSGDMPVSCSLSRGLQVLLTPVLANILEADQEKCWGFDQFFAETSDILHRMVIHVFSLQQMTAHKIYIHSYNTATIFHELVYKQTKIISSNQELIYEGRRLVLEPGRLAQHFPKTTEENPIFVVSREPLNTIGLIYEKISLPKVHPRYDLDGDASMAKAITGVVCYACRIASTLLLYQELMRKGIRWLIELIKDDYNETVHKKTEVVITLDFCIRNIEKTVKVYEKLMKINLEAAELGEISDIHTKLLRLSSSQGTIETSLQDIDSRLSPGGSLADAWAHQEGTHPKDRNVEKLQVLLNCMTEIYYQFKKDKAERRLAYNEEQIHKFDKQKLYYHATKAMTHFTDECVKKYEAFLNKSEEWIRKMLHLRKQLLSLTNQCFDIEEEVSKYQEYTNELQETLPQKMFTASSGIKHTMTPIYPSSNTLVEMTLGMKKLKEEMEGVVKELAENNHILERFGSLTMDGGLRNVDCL
method-description: TBK1 low ATP kinase assay (in vitro assay 1)
Type: biochemical
details: in vitro assay 1, read-out: TBK1 low ATP kinase assay IC50
pIC50: −log10 of the molar value.
assay-readout: pIC50

Known results for compounds:
# compound, assay-readout, result
measured = [
    ("O=C(CC(F)(F)F)N1CCN(Cc2ccnc(Nc3nc4ccc(-c5ccnc(OCC6CC6)n5)cc4[nH]3)c2)CC1 [Example 62.01.03]", "pIC50", 8.47),
    ("CC(c1ccnc(Nc2nc3ccc(-c4ccnn4C)cc3[nH]2)c1)N1CCN(C(=O)OC(C)(C)C)CC1 (single isomer, unassigned) [Example 123.01]", "pIC50", 7.44),
    ("COc1cc(-c2ccc3nc(Nc4cc(CN5CCN(C(=O)CC(F)(F)F)CC5)ccn4)[nH]c3c2)nc(C)n1 [Example 176.02]", "pIC50", 5.45),
    ("Cc1cc(-c2ccc3nc(Nc4cc(C(C)N5CCN(C(=O)CC(F)(F)F)CC5)ccn4)[nH]c3c2Cl)ncn1 (single isomer, unassigned) [Example 98.02]", "pIC50", 7.36),
    ("CCOc1c(-c2ccncc2OC)ccc2nc(Nc3cc(CN4CCN(C(=O)C5CC5)CC4)ccn3)[nH]c12 [Example 51.03]", "pIC50", 6.95),
    ("COc1c(OCC2CC2)ncnc1-c1ccc2nc(Nc3cc(CN4CCN(C(=O)CC(F)(F)F)CC4)ccn3)[nH]c2c1 [Example 65.01.02]", "pIC50", 7.23),
]

P = CC(c1ccnc(Nc2nc3ccc(-c4cnn(C(C)C5CC5)c4)cc3[nH]2)c1)N1CCN(C(=O)CC(F)(F)F)CC1 (single isomer, unassigned) [Example 74.02]
Q = CN(c1cc(-c2ccc3nc(Nc4cc(CN5CCN(C(=O)CC(F)(F)F)CC5)ccn4)[nH]c3c2)ncn1)C1CC1 [Example 157.02]
R = Cn1cc(-c2ccc3nc(Nc4cc(CN5CCN(C(=O)C6CC6)CC5)ccn4)[nH]c3c2)cn1 [Example 37.03]
q: Highest pIC50 first, then in falling order down to the smallest. Dear reader, please state the labels in the requested order.
a: Q, P, R
(Q: 8.05, P: 7.72, R: 7.28)

P = Cc1cc(-c2ccc3nc(Nc4cc(C(C)N5CCN(C(=O)OC(C)(C)C)CC5)ccn4)[nH]c3c2F)ncn1 (single isomer, unassigned) [Example 172.01]
Q = CC(c1ccnc(Nc2nc3ccc(-c4cnn(CC5CC5(C)C)c4)cc3[nH]2)c1)N1CCN(C(=O)C2CC2)CC1 (single isomer, unassigned) [Example 67.03]
q: Which one would you say has the larger pIC50 value: P , or Q ? Identify your pick by its label.
a: Q

---

assayed-target: UniProt Q9UHD2
method-description: TBK1 low ATP kinase assay (in vitro assay 1)
Format: biochemical
details: in vitro assay 1, read-out: TBK1 low ATP kinase assay IC50
assay-readout: IC50 (nM)

# compound, result
data = [
    ("O=C(CC(F)(F)F)N1CCN(Cc2ccnc(Nc3nc4ccc(-c5cc(N6CCCC6)ncn5)cc4[nH]3)c2)CC1", 2.3),
]

a = O=C(C1CC1)N1CCN(Cc2ccnc(Nc3nc4ccc(-c5ccnc(N6CCOCC6)c5)cc4[nH]3)c2)CC1
b = O=C(CC(F)(F)F)N1CCN(Cc2ccnc(Nc3nc4ccc(-c5cnn(CC(F)(F)F)c5)cc4[nH]3)c2)CC1
c = Cc1cccc(N2CCN(Cc3ccnc(Nc4nc5ccc(-c6nc(C)no6)cc5[nH]4)c3)CC2)n1
q: Highest IC50 first, then in falling order down to the smallest. Dear reader, please state the labels in the requested order.
a: c, a, b
(c: 340 nM, a: 19 nM, b: 9.81 nM)

---

assayed-target: TBK1 (Homo sapiens (Human))
method-description: TBK1 low ATP kinase assay (in vitro assay 1)
Type: biochemical
details: in vitro assay 1, read-out: TBK1 low ATP kinase assay IC50
pIC50: −log10 of the molar value.
assay-readout: pIC50

Known results for compounds:
# compound, assayed-target, result
data = [
    ("CN(C)c1nccnc1-c1ccc2nc(Nc3cc(CN4CCN(C(=O)CC(F)(F)F)CC4)ccn3)[nH]c2c1", "TBK1 (Homo sapiens (Human))", 5.74),
    ("O=C(C1CC1)N1CCN(Cc2ccnc(Nc3nc4ccc(-c5cncnc5)cc4[nH]3)c2)CC1", "TBK1 (Homo sapiens (Human))", 6.69),
    ("O=C(CC(F)(F)F)N1CCN(Cc2ccnc(Nc3nc4ccc(-c5cnc(Cl)cn5)cc4[nH]3)c2)CC1", "TBK1 (Homo sapiens (Human))", 6.27),
    ("O=C(C1CC1)N1CCN(Cc2ccnc(Nc3nc4ccc(-c5c(F)cncc5Cl)cc4[nH]3)c2)CC1", "TBK1 (Homo sapiens (Human))", 6.59),
    ("Cc1cc(-c2ccc3nc(Nc4cc(C(C)N5CCN(C(=O)C6CC6)CC5)ccn4)[nH]c3c2)n(C)n1 (single isomer, unassigned)", "TBK1 (Homo sapiens (Human))", 6.49),
    ("CSc1ncc(-c2ccc3nc(Nc4cc(CN5CCN(C(=O)CC(F)(F)F)CC5)ccn4)[nH]c3c2)cn1", "TBK1 (Homo sapiens (Human))", 5.84),
    ("Cc1nccc(-c2ccc3nc(Nc4cc(CN5CCN(C(=O)CC(F)(F)F)CC5)ccn4)[nH]c3c2)n1", "TBK1 (Homo sapiens (Human))", 7.45),
    ("CC(c1ccnc(Nc2nc3ccc(-c4cnn(CC5CC5(F)F)c4)c(Cl)c3[nH]2)c1)N1CCN(C(=O)CC(F)(F)F)CC1 (single isomer, unassigned)", "TBK1 (Homo sapiens (Human))", 9.06),
    ("Cc1noc(-c2ccc3nc(Nc4cc(CN5CCN(c6ccccn6)CC5)ccn4)[nH]c3c2)n1", "TBK1 (Homo sapiens (Human))", 6.68),
    ("CSc1ncc(-c2ccc3nc(Nc4cc(CN5CCN(C(=O)C6CC6)CC5)ccn4)[nH]c3c2)cn1", "TBK1 (Homo sapiens (Human))", 6.08),
]

1 = CCOc1cnc(C)cc1-c1ccc2nc(Nc3cc(CN4CCN(C(=O)C5CCC5)CC4)ccn3)[nH]c2c1
2 = O=C(C1CC1)N1CCN(Cc2ccnc(Nc3nc4ccc(-c5cc(OCC6CC6)ncn5)cc4[nH]3)c2)CC1
q: Which one would you say has the larger pIC50 value: 1 , or 2 ? Identify your pick by its label.
a: 2
(2: 8.54, 1: 6.45)

A = Cc1c(-c2ccc3nc(Nc4cc(CN5CCN(C(=O)OC(C)(C)C)CC5)ccn4)[nH]c3c2)ncnc1C(F)(F)F
B = O=C(C1CC1)N1CCN(Cc2ccnc(Nc3nc4ccc(-c5ncc[nH]5)cc4[nH]3)c2)CC1
q: For the pair A and B , which member has the lower pIC50 number? Identify your pick by its label.
a: A
(A: 5.14, B: 6.58)

---

assayed-target: TBK1 (Homo sapiens (Human), UniProt Q9UHD2)
method-description: TBK1 low ATP kinase assay (in vitro assay 1)
Type: biochemical
details: in vitro assay 1, read-out: TBK1 low ATP kinase assay IC50
assay-readout: IC50 (nM)

# compound, assay-readout, unit-info, result
data = [
    ("CC(c1ccnc(Nc2nc3ccc(-c4cnn(CC5CC5(F)F)c4)cc3[nH]2)c1)N1CCN(C(=O)CC(F)(F)F)CC1 (single isomer, unassigned) [Example 55.02]", "IC50", "nM", 1.06),
]

1 = Cc1noc(-c2ccc3nc(Nc4cc(CN5CCN(C(N)=O)CC5)ccn4)[nH]c3c2)n1
2 = CC(c1ccnc(Nc2nc3ccc(-c4cc(C(F)(F)F)ncn4)cc3[nH]2)c1)N1CCN(C(=O)CC(F)(F)F)CC1 (single isomer, unassigned) [Example 29.02.01.A]
q: Which one would you say has the larger IC50 value: 1 , or 2 ? Identify your pick by its label.
a: 1

a = COc1cncnc1-c1ccc2nc(Nc3cc(C(C)N4CCN(C(=O)C5CCC5)CC4)ccn3)[nH]c2c1 (single isomer, unassigned) [Example 35.03.04.B]
b = Cc1ccnc(N2CCN(Cc3ccnc(Nc4nc5ccc(-c6nc(C)no6)cc5[nH]4)c3)CC2)c1
q: Which one would you say has the larger IC50 value: a , or b ? Identify your pick by its label.
a: b
(b: 560 nM, a: 34.5 nM)
